# Method notes: Thermodynamic solubility
# Assay type: physicochemical
# Particulars: aqueous buffer, thermodynamic from solid; typically phosphate buffered saline pH 7.4, ambient temperature overnight
Metric: solubility thermodynamic (µM)
Numbers only, in µM.

1) Cc1nc2ccc(Cl)nn2c1C(=O)N[C@H]1N=C(c2ccccc2)c2cccc(F)c2NC1=O = 3.84

Now examine the next entry.
// solubility thermodynamic value for `Cc1nc2ccc(Cl)nn2c1C(=O)N[C@H]1N=C(c2ccccc2)c2ccccc2NC1=O` : 4.64

###

# Method notes: in vivo
# Format: in vivo
# Particulars: in vivo; male Beagle dog, IV 0.5 mg/kg
Metric: clearance (mL/min/kg)
Numbers only, in mL/min/kg.

Here is how some molecules turned out for clearance.
1) Cc1nc2ccc(Cl)nn2c1C(=O)N[C@H]1N=C(c2ccccc2)c2cccc(F)c2NC1=O [Example 20] = 1.6
2) O=C(N[C@H]1N=C(c2ccccc2)c2ccccc2NC1=O)c1c(-c2ccccc2F)nn2cccnc12 [Example 2] = 1.3
3) Cc1ccc(-c2nn3cccnc3c2C(=O)N[C@H]2N=C(c3ccccc3)c3cccc(F)c3NC2=O)cn1 [Example 50] = 1.7

Now examine the next entry.
// clearance value for CCc1ccc(-c2nn3cccnc3c2C(=O)N[C@H]2N=C(c3ccccc3)c3cccc(F)c3NC2=O)cn1 [Example 55] : 1.5
